pIC50: −log10 of the molar value.
// values below are pIC50; system is PTPN2 (Homo sapiens, UniProt P17706)
Sequence (P17706 whole entry): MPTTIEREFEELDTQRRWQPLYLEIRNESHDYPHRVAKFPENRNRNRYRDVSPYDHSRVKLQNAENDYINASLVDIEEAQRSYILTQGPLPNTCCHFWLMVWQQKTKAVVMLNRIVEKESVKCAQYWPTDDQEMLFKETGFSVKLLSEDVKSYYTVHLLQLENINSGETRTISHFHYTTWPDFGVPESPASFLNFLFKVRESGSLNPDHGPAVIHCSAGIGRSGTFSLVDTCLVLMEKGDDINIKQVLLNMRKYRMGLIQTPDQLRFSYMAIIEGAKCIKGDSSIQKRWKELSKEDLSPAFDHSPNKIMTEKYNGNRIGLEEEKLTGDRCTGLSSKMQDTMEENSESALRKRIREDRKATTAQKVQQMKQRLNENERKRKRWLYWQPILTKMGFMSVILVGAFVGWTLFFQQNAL

Sample records with pIC50:
molecule smiles | pIC50
CC(C)CCNC(=O)c1cc2cc(N3CC(=O)NS3(=O)=O)c(O)cc2s1 | ≥ 6.00
O=C1CN(c2c(O)cc3ccc(OC(F)F)nc3c2F)S(=O)(=O)N1 | ≥ 6.00
Cn1c(=O)c(NCc2ccccc2)cc2c(F)c(N3CC(=O)NS3(=O)=O)c(O)cc21 | ≥ 6.00

For the next question, use this molecule.
PTPN2 (Homo sapiens, UniProt P17706) pIC50 of `Cn1c(=O)c(C#N)cc2cc(N3CC(=O)NS3(=O)=O)c(O)cc21` is < 5.00

###

IC50, PTPN2 (Homo sapiens, UniProt P17706): measured values

Reference set, count: 4
compound | result
CC(C)OCCNc1cc2cc(N3CC(=O)NS3(=O)=O)c(O)cc2n(C)c1=O [Compound 195] | ≤ 1000 nM
O=C1CN(c2c(O)cc3sc(C(=O)NCCc4ccccc4)cc3c2F)S(=O)(=O)N1 [Compound 198] | ≤ 1000 nM
COc1ccc2cc(O)c(N3CC(=O)NS3(=O)=O)cc2n1 [Compound 124] | ≤ 1000 nM
CC(C)CCNc1ccc2cc(O)c(N3CC(=O)NS3(=O)=O)c(F)c2n1 [Compound 117] | ≤ 1000 nM

Considering Cn1c(=O)c(N2CCCCC2)cc2cc(N3CC(=O)NS3(=O)=O)c(O)cc21 [Compound 169] , its IC50 with PTPN2 (Homo sapiens, UniProt P17706) was recorded as 1000 to 10000 nM

###

Entries annotated with measured pIC50
target desc: PTP1B (Homo sapiens, UniProt P18031)
Sequence (P18031 1-435): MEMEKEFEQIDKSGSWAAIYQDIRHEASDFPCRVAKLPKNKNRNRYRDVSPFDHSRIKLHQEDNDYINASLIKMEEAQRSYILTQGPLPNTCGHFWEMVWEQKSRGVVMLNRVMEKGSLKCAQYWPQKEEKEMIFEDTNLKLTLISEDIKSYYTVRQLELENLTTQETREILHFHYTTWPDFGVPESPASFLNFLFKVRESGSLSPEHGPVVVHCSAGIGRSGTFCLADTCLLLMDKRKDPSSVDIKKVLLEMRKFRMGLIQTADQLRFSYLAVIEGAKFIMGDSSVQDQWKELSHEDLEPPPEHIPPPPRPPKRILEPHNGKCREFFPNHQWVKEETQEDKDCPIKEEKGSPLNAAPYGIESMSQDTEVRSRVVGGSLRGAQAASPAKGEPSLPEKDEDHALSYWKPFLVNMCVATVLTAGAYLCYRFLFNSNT
pIC50: −log10 of the molar value.

molecule | result
CCN1CCC(CNc2cc3cc(N4CC(=O)NS4(=O)=O)c(O)cc3n(C)c2=O)CC1 | ≥ 6.00
CC(C)CCN1Cc2cc(N3CC(=O)NS3(=O)=O)c(O)cc2CC1=O | ≥ 6.00
CN1CC=C(c2cnc3cc(O)c(C4=CC(=O)NS4(=O)=O)cc3c2)CC1 | < 5.00
COc1cc2c(cc1N1CC(=O)NS1(=O)=O)C(=O)N(C)CC2 | < 5.00
C[C@@H](Nc1cc2cc(N3CC(=O)NS3(=O)=O)c(O)cc2n(C)c1=O)c1ccccc1 | ≥ 6.00
O=C1CN(c2c(O)cc3ccc(OCC4CCCOC4)nc3c2F)S(=O)(=O)N1 (centres unmarked) | ≥ 6.00

The recorded pIC50 for `Cn1c(=O)c(NCC(C)(F)F)cc2cc(N3CC(=O)NS3(=O)=O)c(O)cc21` is ≥ 6.00

Lab note: `Cn1c(=O)c(NCCC2CCC(F)(F)CC2)cc2cc(N3CC(=O)NS3(=O)=O)c(O)cc21` gave pIC50 of ≥ 6.00

Recorded result, `Cn1c(=O)c(NCCCC#N)cc2cc(N3CC(=O)NS3(=O)=O)c(O)cc21` , pIC50: ≥ 6.00

Entry under test: `Cn1c(=O)c(NCCC2CCCCC2)cc2cc(N3CC(=O)NS3(=O)=O)c(O)cc21` . Its pIC50 was ≥ 6.00

Data point: `Cn1c(=O)c(NCc2ccccc2)cc2cc(N3CC(=O)NS3(=O)=O)c(O)cc21` ; pIC50 = ≥ 6.00

For O=C1CN(c2cc3nc(C4CCOC4)ccc3cc2O)S(=O)(=O)N1 (centres unmarked) the molecule record lists pIC50 as ≥ 6.00

Note to self: pIC50 recorded for `CC(C)CCNc1cc2c(F)c(N3CC(=O)NS3(=O)=O)c(O)cc2n(C)c1=O` was ≥ 6.00

Form: molecule = `COC(=O)c1cc2cc(N3CC(=O)NS3(=O)=O)c(OC)cc2s1` ; pIC50 = < 5.00

# pIC50 (molecule: `CC(C)CCn1ccc2cc(O)c(N3CC(=O)NS3(=O)=O)cc2c1=O` ) is < 5.00

Looking up `O=C1CN(c2cc3nc(OCCc4ccccc4)ccc3cc2O)S(=O)(=O)N1` , I see its pIC50 listed as ≥ 6.00

Documented pIC50 of `CN(C)CCOc1ccc2cc(O)c(N3CC(=O)NS3(=O)=O)c(F)c2n1` : ≥ 6.00
